Kindly state growth inhibition for each of the entries shown.
# test.name: NCI Yeast Anticancer Drug Screen. Data for the mec2-1 strain (AID 157)
# run.parameters: S. cerevisiae mec2-1 strain, at 50.0 µM, hits give high values
This is part of a sample that, as a whole, favours compounds with a hit. Of some 79,000 tested, about 15% had one in any assay.
Numeric answer only, unit % assumed.

growth inhibition reading for OC1(c2ccccc2)C2CCN(CC2)C1CN1CCOCC1 (stereo not given) : -30.7

For this compound ( CC(=O)[CH-]C(C)=O.O=[N+]([O-])O.[NH-]C1CCCCC1[NH-].[Pt+4] (stereo not given) ), measured growth inhibition is 98.5

Summary for this compound, `CCCCCCCC(=O)[O-].N.N.N.N.N.[Co+3].[O-][Cl+3]([O-])([O-])[O-]` : growth inhibition is 20.2

Looking up `O=NNc1cnc2ccccc2n1` , I found its growth inhibition recorded as -0.25

growth inhibition recorded for this compound, `CCC1(CNC(=O)CN)C(=O)NC(=O)NC1=O` , is -0.85

Kindly note the recorded growth inhibition for CC1OC(OC2C(O)C(O)C(O)C(O)C2O)C(N)CC1N=C(N)C(=O)O (stereo not given) , which is 3.6

growth inhibition measured on `CC(C)OP(=O)(NC(=S)c1ccccc1)OC(C)C` = 21

For record `NCC(=O)c1ccc(O)c(O)c1` the listed growth inhibition is -7.05

Briefly, growth inhibition measured for CCCOC(C(=O)OC1CCC2CCC1N2C)(c1ccccc1)c1ccccc1 (stereo not given) : -0.5

Record `CC(C)N=Cc1ccccc1O.CC(C)N=Cc1ccccc1O.[Ni]` , field growth inhibition: 1.1

Short answer for OC(c1ccccc1)C(Cl)(Cl)Cl (stereo not given) : growth inhibition was -10.8

Reported growth inhibition ( `CNC(=O)CCl` ) = 3.4

`CCC(=O)[O-].CCC(=O)[O-].N.N.N.N.[Co+3].[O-][Cl+3]([O-])([O-])[O-]` has a reported growth inhibition of -1.6

Entry under test: `N#CCN(CC#N)[N+](=O)[O-]` . Its growth inhibition was -4.95

# compound `O=[N+]([O-])c1ccc(P2(=O)Nc3ccccc3N2)cc1` ; its growth inhibition = -12.7

# growth inhibition of `O=C(O)/C=C/c1ccc(S(=O)(=O)F)cc1` = -16

Looking up `Clc1ccc(N2CCN(c3ccc(Cl)cc3)CC2)cc1` , I see its growth inhibition listed as 1.45

# growth inhibition (compound: `CCCCCCCCCCCCN(C)C` ) is 28.7

Quick note, growth inhibition for CC(=O)C(N)Cc1ccccc1 (stereo not given) landed at 17.2

The compound listed as `CCOC(OCC)c1ccccc1.[C-]#[O+].[C-]#[O+].[C-]#[O+].[Cr]` shows growth inhibition equal to 21.4

For reference, reported growth inhibition for `COC(N)=O` stands at -10.2

Short answer for `CN(C)[C@@H]1C(=O)C(C(N)=O)=C(O)[C@@]2(O)C(=O)C3=C(O)c4c(O)ccc(Cl)c4[C@@](C)(O)[C@H]3C[C@@H]12` : growth inhibition was 1.1

get_value(item= `Nc1cc([N+](=O)[O-])cc([N+](=O)[O-])c1` , readout=growth inhibition) returns -9.3

Summary for this compound, NC(Cc1ccc(Cl)cc1)c1nn[nH]n1 (stereo not given) : growth inhibition is 1.25

Field growth inhibition (entry `O=C(Nc1ccc(Cl)cc1C(=O)c1ccccc1)c1ccc([N+](=O)[O-])cc1` ) reads -3.1
